Test system: Panc-1 cells
Assay: Protein expression using high content cell imaging system, and efficacy score
Type: cell-based
Details: 6 hours post treatment; control 635
measured-property: COX2 protein expression (fluorescence units)

{"columns": ["compound", "reported-value"],
 "data": [
  ["CC[C@H](CO)Nc1nc(NCc2ccccc2)c2ncn(C(C)C)c2n1", 542],
  ["CN1CC[C@@H](c2c(O)cc(O)c3c(=O)cc(-c4ccc(C(F)(F)F)cc4Cl)oc23)[C@@H]1CO.Cl (relative stereo) [P1446A]", 457],
  ["Nc1ccn([C@@H]2O[C@H](CO)[C@@H](O)C2(F)F)c(=O)n1", 462],
  ["CN1CC[C@@H](c2c(O)cc(O)c3c(=O)cc(-c4ccccc4Cl)oc23)[C@@H]1CO.Cl (relative stereo)", 406],
  ["CN1CC[C@H](c2c(O)cc(O)c3c(=O)cc(-c4ccccc4Cl)oc23)[C@H](O)C1", 351]
]}
